- Tested on: Escherichia coli 25922 (QC strain)
- assay_procedure: Antibacterial MIC, agar-dilution or broth-dilution microtiter test
- Type: cell-based
- assay_context: Strain F: Escherichia coli 25922 (QC strain)
Assignment: determine reported MIC for the given compounds.
Numbers only here, please. The scale is µg/mL.

# CC[C@H]1OC(=O)C[C@@H](O)[C@H](C)[C@@H](O[C@@H]2O[C@H](C)[C@@H](O)[C@H](N(C)C)[C@H]2O)[C@@H](CCN2CCCCC2)C[C@@H](C)C(=O)/C=C/C(C)=C/[C@@H]1CN(C)Cc1ccccc1 with Escherichia coli 25922 (QC strain): MIC is 4

# CC[C@H]1OC(=O)C[C@@H](O)[C@H](C)[C@@H](O[C@@H]2O[C@H](C)[C@@H](O)[C@H](N(C)C)[C@H]2O)[C@@H](CCN2CCCCC2)C[C@@H](C)C(=O)/C=C/C(C)=C/[C@@H]1CNC1CCCCC1 with Escherichia coli 25922 (QC strain): MIC is 16

# CC[C@H]1OC(=O)C[C@@H](O)[C@H](C)[C@@H](O[C@@H]2O[C@H](C)[C@@H](O)[C@H](N(C)C)[C@H]2O)[C@@H](CCN2CCCCC2)C[C@@H](C)C(=O)/C=C/C(C)=C/[C@@H]1CN1CCCCC1 [Zuprevo, reference compound] with Escherichia coli 25922 (QC strain): MIC is 4

# CC[C@H]1OC(=O)C[C@@H](O)[C@H](C)[C@@H](O[C@@H]2O[C@H](C)[C@@H](O)[C@H](N(C)C)[C@H]2O)[C@@H](CCN2CCCCC2)C[C@@H](C)C(=O)/C=C/C(C)=C/[C@@H]1CNCc1ccccc1 with Escherichia coli 25922 (QC strain): MIC is 256

# CC[C@H]1OC(=O)C[C@@H](O)[C@H](C)[C@@H](O[C@@H]2O[C@H](C)[C@@H](O)[C@H](N(C)C)[C@H]2O)[C@@H](CCN2CCCCC2)C[C@@H](C)C(=O)/C=C/C(C)=C/[C@@H]1CN(CC)CC with Escherichia coli 25922 (QC strain): MIC is 4

# CC[C@H]1OC(=O)C[C@@H](O)[C@H](C)[C@@H](O[C@@H]2O[C@H](C)[C@@H](O)[C@H](N(C)C)[C@H]2O)[C@@H](CCN2CCCCC2)C[C@@H](C)C(=O)/C=C/C(C)=C/[C@@H]1CN(CCO)CCO with Escherichia coli 25922 (QC strain): MIC is 256

# CC[C@H]1OC(=O)C[C@@H](O)[C@H](C)[C@@H](O[C@@H]2O[C@H](C)[C@@H](O)[C@H](N(C)C)[C@H]2O)[C@@H](CCN2C[C@H](C)C[C@H](C)C2)C[C@@H](C)C(=O)/C=C/C(C)=C/[C@@H]1CO[C@@H]1O[C@H](C)[C@@H](O)[C@@H](OC)[C@H]1OC [Tilmicosin, reference compound] with Escherichia coli 25922 (QC strain): MIC is 8

# CCCN(CCC)C[C@H]1/C=C(C)/C=C/C(=O)[C@H](C)C[C@H](CCN2CCCCC2)[C@H](O[C@@H]2O[C@H](C)[C@@H](O)[C@H](N(C)C)[C@H]2O)[C@@H](C)[C@H](O)CC(=O)O[C@@H]1CC with Escherichia coli 25922 (QC strain): MIC is 4

###

- System: Pasteurella 8229
- assay_procedure: Antibacterial MIC, agar-dilution or broth-dilution microtiter test
- Type: cell-based
- assay_context: Strain D: Pasteurella 8229
Assignment: determine reported MIC for the given molecules.
Numbers only here, please. The scale is µg/mL.

Just so you know, measured MIC for CC[C@H]1OC(=O)C[C@@H](O)[C@H](C)[C@@H](O[C@@H]2O[C@H](C)[C@@H](O[C@H]3C[C@@](C)(O)[C@@H](O)[C@H](C)O3)[C@H](N(C)C)[C@H]2O)[C@@H](CC=O)C[C@@H](C)C(=O)/C=C/C(C)=C/[C@@H]1CO[C@@H]1O[C@H](C)[C@@H](O)[C@@H](OC)[C@H]1OC [Tylosin, reference compound] came out at 32

Just so you know, measured MIC for CC[C@H]1OC(=O)C[C@@H](O)[C@H](C)[C@@H](O[C@@H]2O[C@H](C)[C@@H](O)[C@H](N(C)C)[C@H]2O)[C@@H](CCN2CCCCC2)C[C@@H](C)C(=O)/C=C/C(C)=C/[C@@H]1CNCc1ccccc1 [Compound 4e] came out at 16

Just so you know, measured MIC for CC[C@H]1OC(=O)C[C@@H](O)[C@H](C)[C@@H](O[C@@H]2O[C@H](C)[C@@H](O)[C@H](N(C)C)[C@H]2O)[C@@H](CCN2CCCCC2)C[C@@H](C)C(=O)/C=C/C(C)=C/[C@@H]1CN1CCCCC1 [Zuprevo, reference compound] came out at 1

Just so you know, measured MIC for CC[C@H]1OC(=O)C[C@@H](O)[C@H](C)[C@@H](O[C@@H]2O[C@H](C)[C@@H](O)[C@H](N(C)C)[C@H]2O)[C@@H](CCN2CCCCC2)C[C@@H](C)C(=O)/C=C/C(C)=C/[C@@H]1CN(C)Cc1ccccc1 [Compound 4f] came out at 0.12

###

- Tested on: salmonella LD4-8
- assay_procedure: Antibacterial MIC, agar-dilution or broth-dilution microtiter test
- Assay type: cell-based
- assay_context: LD48; Strain I: salmonella LD4-8
Assignment: determine reported MIC for the given compounds.
Numbers only here, please. The scale is µg/mL.

Just so you know, measured MIC for CC[C@H]1OC(=O)C[C@@H](O)[C@H](C)[C@@H](O[C@@H]2O[C@H](C)[C@@H](O)[C@H](N(C)C)[C@H]2O)[C@@H](CCN2CCCCC2)C[C@@H](C)C(=O)/C=C/C(C)=C/[C@@H]1CN1CCCCC1 [Zuprevo, reference compound] came out at 8

Just so you know, measured MIC for CC[C@H]1OC(=O)C[C@@H](O)[C@H](C)[C@@H](O[C@@H]2O[C@H](C)[C@@H](O)[C@H](N(C)C)[C@H]2O)[C@@H](CCN2CCCCC2)C[C@@H](C)C(=O)/C=C/C(C)=C/[C@@H]1CNC1CCCCC1 came out at 32

Just so you know, measured MIC for CCCN(CCC)C[C@H]1/C=C(C)/C=C/C(=O)[C@H](C)C[C@H](CCN2CCCCC2)[C@H](O[C@@H]2O[C@H](C)[C@@H](O)[C@H](N(C)C)[C@H]2O)[C@@H](C)[C@H](O)CC(=O)O[C@@H]1CC came out at 8

Just so you know, measured MIC for CC[C@H]1OC(=O)C[C@@H](O)[C@H](C)[C@@H](O[C@@H]2O[C@H](C)[C@@H](O)[C@H](N(C)C)[C@H]2O)[C@@H](CCN2CCCCC2)C[C@@H](C)C(=O)/C=C/C(C)=C/[C@@H]1CN(CC)CC came out at 4

Just so you know, measured MIC for CCCCNC[C@H]1/C=C(C)/C=C/C(=O)[C@H](C)C[C@H](CCN2CCCCC2)[C@H](O[C@@H]2O[C@H](C)[C@@H](O)[C@H](N(C)C)[C@H]2O)[C@@H](C)[C@H](O)CC(=O)O[C@@H]1CC came out at 32

Just so you know, measured MIC for CC[C@H]1OC(=O)C[C@@H](O)[C@H](C)[C@@H](O[C@@H]2O[C@H](C)[C@@H](O)[C@H](N(C)C)[C@H]2O)[C@@H](CCN2C[C@H](C)C[C@H](C)C2)C[C@@H](C)C(=O)/C=C/C(C)=C/[C@@H]1CO[C@@H]1O[C@H](C)[C@@H](O)[C@@H](OC)[C@H]1OC [Tilmicosin, reference compound] came out at 32

Just so you know, measured MIC for CC[C@H]1OC(=O)C[C@@H](O)[C@H](C)[C@@H](O[C@@H]2O[C@H](C)[C@@H](O)[C@H](N(C)C)[C@H]2O)[C@@H](CCN2CCCCC2)C[C@@H](C)C(=O)/C=C/C(C)=C/[C@@H]1CN(CCO)CCO came out at 128

Just so you know, measured MIC for CC[C@H]1OC(=O)C[C@@H](O)[C@H](C)[C@@H](O[C@@H]2O[C@H](C)[C@@H](O)[C@H](N(C)C)[C@H]2O)[C@@H](CCN2CCCCC2)C[C@@H](C)C(=O)/C=C/C(C)=C/[C@@H]1CN(C)Cc1ccccc1 came out at 4

###

Assignment: determine reported MIC for the given compounds.
- Tested on: Actinobacillus pleuropneumoniae serotype 7
- assay_procedure: Antibacterial MIC, agar-dilution or broth-dilution microtiter test
- Assay type: cell-based
- assay_context: Strain B: Actinobacillus pleuropneumoniae serotype 7
Numbers only here, please. The scale is µg/mL.

Just so you know, measured MIC for CCCN(CCC)C[C@H]1/C=C(C)/C=C/C(=O)[C@H](C)C[C@H](CCN2CCCCC2)[C@H](O[C@@H]2O[C@H](C)[C@@H](O)[C@H](N(C)C)[C@H]2O)[C@@H](C)[C@H](O)CC(=O)O[C@@H]1CC came out at 32

Just so you know, measured MIC for CC[C@H]1OC(=O)C[C@@H](O)[C@H](C)[C@@H](O[C@@H]2O[C@H](C)[C@@H](O)[C@H](N(C)C)[C@H]2O)[C@@H](CCN2CCCCC2)C[C@@H](C)C(=O)/C=C/C(C)=C/[C@@H]1CN(CCO)CCO came out at 256

Just so you know, measured MIC for CCCCNC[C@H]1/C=C(C)/C=C/C(=O)[C@H](C)C[C@H](CCN2CCCCC2)[C@H](O[C@@H]2O[C@H](C)[C@@H](O)[C@H](N(C)C)[C@H]2O)[C@@H](C)[C@H](O)CC(=O)O[C@@H]1CC came out at 128

Just so you know, measured MIC for CC[C@H]1OC(=O)C[C@@H](O)[C@H](C)[C@@H](O[C@@H]2O[C@H](C)[C@@H](O)[C@H](N(C)C)[C@H]2O)[C@@H](CCN2C[C@H](C)C[C@H](C)C2)C[C@@H](C)C(=O)/C=C/C(C)=C/[C@@H]1CO[C@@H]1O[C@H](C)[C@@H](O)[C@@H](OC)[C@H]1OC [Tilmicosin, reference compound] came out at 32

Reference source: patent US10287275B2
